The reported numbers originate from PubChem BioAssay (NCI).

# Test system: SF-295 CNS
# protocol-notes: NCI-60 one-dose screen, 48 h
# condition-details: 10 µM unless noted
Compounds without any hit were thinned out: in the full panel of roughly 83,000, 20% have a hit. Active and inactive are the calls of the source. Rule for the calls: active = growth percent below 10; inactive = the rest.
The reply should be one of these categories: active, inactive

Example cases with answers are listed next.
>>> discrete_label("O=S(=O)(NCCCNc1nccc(-c2c(-c3ccc(F)c(O)c3)nc3sccn23)n1)c1ccc(Cl)cc1")
"inactive"
>>> discrete_label("O=C1N=C(c2c(-c3[nH]c(=O)c4ccc(Br)cc4c3O)c(O)c3ccccc3c2O)C(=O)c2cc(Br)ccc21")
"inactive"
>>> discrete_label("COc1cc(C2C3=C(COC3=O)Nc3c2ccc2c3CCCC2)cc2c1OCO2 (stereo not drawn)")
"inactive"
>>> discrete_label("O=C1Nc2ccc(Br)cc2C1=N/C=c1\\[nH]c(=O)/c(=C/c2ccc(Cl)cc2)s1")
"inactive"
>>> discrete_label("CCN(CC)c1cc(/C=C/c2ccc(OC)c(OC)c2)nc2cc(F)c(F)cc12")
"active"
>>> discrete_label("O=[N+]([O-])c1cc(S(=O)(=O)OCC2CO2)ccc1Cl (stereo not drawn)")
"inactive"
>>> discrete_label("CCOC(=O)c1cc(/C(=N\\O)c2cc(OC)c(OC)c(OC)c2)n2c(C)cccc12")
"inactive"
>>> discrete_label("C=CCOc1ccc(/C(O)=C2\\C(=O)C(=O)N(c3nccs3)C2c2ccccc2F)cc1 (stereo not drawn)")
"inactive"
>>> discrete_label("CC/C(=C(\\c1ccc(O)cc1)c1ccc(OCCN(C)CCN(C)C(=O)CCC(=O)c2c(C)[nH]c(/C=C3\\N=C(c4ccc[nH]4)C=C3OC)c2C)cc1)c1ccccc1")
"inactive"
>>> discrete_label("CCN(CC)S(=O)(=O)c1ccc2[nH]c(=O)cc(C(=O)Nc3ccc(OC)cc3OC)c2c1")
"inactive"

Q. Tell me the assay call for CC(C)(C)OC(=O)N1C/C(=C\c2cccs2)C(=O)/C(=C/c2cccs2)C1 please.
A. inactive

Q. Test call, this molecule: CC(CCc1ccccc1)NC(=O)c1n[nH]c(=O)c2ccccc12 (stereo not drawn)
A. inactive

Q. Hello, I am checking results. What call was entered for C[N+](C)(C)c1ccc(CC2c3ccccc3-c3ccccc32)cc1 ?
A. inactive
